# Test system: PfAP2-LT AP2 domain (GST-tagged)
# test: gcPBM binding intensity (ln(normalized median fluorescence intensity)); higher = stronger DNA binding
In all, about 25,000 sequences were measured (“ln(normalized median fluorescence intensity)”: median about 8.9, highest 2% from about 10 on). Only a selection was taken, and the highest values are over-represented in it overall.
Label Condition met for high-side gcPBM binding intensity (ln) (at or above 10) and Condition not met for low-side gcPBM binding intensity (ln) (below it).

Request: Does the reported gcPBM binding intensity (ln) for ACACGCACATATATATAAATATATATATATATAAAT [CACACA_negctrl_site1781] fall at or above the 10 mark?
Result: Condition not met

Request: Does the reported gcPBM binding intensity (ln) for CACGCGAACATACATACACACACATATATATATATG [CACACA_site7951] fall at or above the 10 mark?
Result: Condition not met

Request: Does the reported gcPBM binding intensity (ln) for CGAACAAACAAATAAACACACAAAAAAAAATATATA [CACACA_site1825] fall at or above the 10 mark?
Result: Condition not met

Request: Does the reported gcPBM binding intensity (ln) for GGCATACACGAACACACACACACACGCACATATATA [CACACA_site6426] fall at or above the 10 mark?
Result: Condition met

Request: Does the reported gcPBM binding intensity (ln) for ATCAAGCACGAACACACACACACACGCACGCCCACA [CACACA_site6308] fall at or above the 10 mark?
Result: Condition met
